Hello, the source for this data is patent US6630496B1, in case you need it.

# experimental target: cPLA2 (Homo sapiens, UniProt P47712)
# Sequence (P47712 whole entry): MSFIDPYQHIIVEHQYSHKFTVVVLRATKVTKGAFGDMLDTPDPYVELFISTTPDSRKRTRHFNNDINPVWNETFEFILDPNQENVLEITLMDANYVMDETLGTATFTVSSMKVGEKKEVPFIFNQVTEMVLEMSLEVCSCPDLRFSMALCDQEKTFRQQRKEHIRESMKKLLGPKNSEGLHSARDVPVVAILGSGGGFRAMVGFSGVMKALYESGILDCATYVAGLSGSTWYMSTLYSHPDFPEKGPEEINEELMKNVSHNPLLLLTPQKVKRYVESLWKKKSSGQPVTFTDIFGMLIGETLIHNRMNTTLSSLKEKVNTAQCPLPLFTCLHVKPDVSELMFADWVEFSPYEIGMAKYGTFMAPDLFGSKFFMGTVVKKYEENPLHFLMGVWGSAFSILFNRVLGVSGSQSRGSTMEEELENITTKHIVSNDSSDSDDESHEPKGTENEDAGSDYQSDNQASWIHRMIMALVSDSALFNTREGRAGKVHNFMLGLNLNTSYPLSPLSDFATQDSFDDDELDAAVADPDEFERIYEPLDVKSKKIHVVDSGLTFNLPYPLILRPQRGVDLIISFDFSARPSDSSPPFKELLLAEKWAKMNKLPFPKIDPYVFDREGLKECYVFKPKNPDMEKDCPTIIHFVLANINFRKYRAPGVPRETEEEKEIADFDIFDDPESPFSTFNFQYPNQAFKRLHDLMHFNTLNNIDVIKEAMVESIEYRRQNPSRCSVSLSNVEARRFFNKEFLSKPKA
# procedure text: Soluble substrate assay (LysoPC)
# Format: biochemical
# assay conditions: NA = inhibitory activity not detected; read-out: IC50 (μM) Lyso PC
Please use 1 for IC50 under 5 µM and -1 for everything else, ties included.

Ask: Please determine if O=C(CSCC1Cc2cc(OCc3ccc4ccccc4n3)ccc2N1C(=O)COc1cc(C(F)(F)F)cc(C(F)(F)F)c1)Nc1cc(C(F)(F)F)cc(C(F)(F)F)c1 (stereo not drawn) is below 5 µM in terms of IC50.
Reply: 1

Ask: Moving on to O=C(CSCC1Cc2cc(OCc3ccccc3)ccc2N1C(=O)COc1ccc(C2C=CCC2)cc1C1C=CCC1)Nc1cccc(C(=O)O)c1 (stereo not drawn)
Reply: 1

Ask: Moving on to CC(O)c1cc(NC(=O)CSCC2Cc3cc(OCc4ccccc4)ccc3N2C(=O)COc2cc(C(F)(F)F)cc(C(F)(F)F)c2)cc(C(=O)O)c1 (stereo not drawn)
Reply: -1

Ask: Moving on to O=C(O)CSCC1Cc2cc(OCc3ccccc3)ccc2N1C(=O)COc1cc(C(F)(F)F)cc(C(F)(F)F)c1 (stereo not drawn)
Reply: -1

Ask: Moving on to COc1ccc(C(=O)O)cc1NC(=O)CSCC1Cc2cc(OCc3ccccc3)ccc2N1C(=O)COc1ccc(Cc2ccccc2)cc1 (stereo not drawn)
Reply: 1

Ask: Moving on to CCC(C)(C)c1ccc(OCC(=O)N2c3ccc(OCc4ccccc4)cc3CC2CSc2ccccc2C(=O)O)c(C(C)(C)CC)c1 (stereo not drawn)
Reply: 1

###

Task for the reader: assign each of the following molecules its reported pIC50.
# experimental target: cPLA2 (Homo sapiens)
# procedure text: Activity assay of Example 136 (Table VIII; sub-assay not stated)
# Assay type: biochemical
# assay conditions: concentration paired with 50 percent inhibition; read-out: CONCENTRATION (micromolar) @ PERCENT INHIBITION 50
Note on pIC50: it is the negative log10 of concentration, concentration in mol/L.

Ask: Need pIC50, item O=C(O)c1cc2cc(-c3ccc(F)cc3)ccc2n1Cc1ccccc1 [Example 111]
Reply: 4.89

Ask: Moving on to CC(=O)c1c(COc2ccc(C(=O)O)cc2)n(Cc2ccc(C(=O)c3nc4ccccc4s3)cc2)c2ccc(OCc3ccccc3)cc12 [Example 135]
Reply: 5.05

Ask: Moving on to CC(=O)c1c(CSc2ccccc2C(=O)O)n(Cc2ccc(C(=O)c3nc4ccccc4s3)cc2)c2ccc(OCc3ccccc3)cc12 [Example 134]
Reply: 5.46

Ask: Moving on to O=C(O)c1ccc(CN2C(=O)S/C(=C/c3cc4cc(OCc5ccccc5)ccc4n3Cc3ccc(COc4cc(C(F)(F)F)cc(C(F)(F)F)c4)cc3)C2=O)cc1 [Example 88]
Reply: 5.52

Ask: Moving on to CC(=O)c1c(CSCC(=O)O)n(Cc2ccc(C(=O)c3nc4ccccc4s3)cc2)c2ccc(OCc3ccccc3)cc12 [Example 133]
Reply: 5.07

Ask: Moving on to O=C(O)c1ccc(CN2C(=O)/C(=C\c3cc4cc(OCc5ccccc5)ccc4n3Cc3ccc(C(F)(F)F)cc3C(F)(F)F)SC2=S)cc1 [Example 107]
Reply: 5.42

###

# experimental target: cPLA2 (Homo sapiens, UniProt P47712)
# procedure text: Soluble substrate assay (LysoPC)
# Format: biochemical
# assay conditions: NA = inhibitory activity not detected; read-out: IC50 (μM) Lyso PC
Class (required): determined from IC50; valid ranges are low group (below 1 µM), middle group (1 µM to below 6 µM), high group (6 µM or more)

Ask: Place this compound in its band: O=C(CSCC1Cc2cc(OCc3ccccc3)ccc2N1Cc1ccc(C(F)(F)F)cc1C(F)(F)F)Nc1cccc(C(=O)O)c1 (stereo not shown)
Reply: middle group

Ask: Moving on to CCC(C)(C)c1ccc(OCC(=O)N2c3ccc(OCc4ccccc4)cc3CC2CSc2ccccc2C(=O)NC)c(C(C)(C)CC)c1 (stereo not shown)
Reply: high group

Ask: Moving on to CN(C)C(=O)c1cc(NC(=O)CSCC2Cc3cc(OCc4ccccc4)ccc3N2C(=O)COc2cc(C(F)(F)F)cc(C(F)(F)F)c2)cc(C(=O)O)c1 (stereo not shown)
Reply: middle group

Ask: Moving on to O=C(O)c1cc(NC(=O)C2Cc3ccccc3N2Cc2ccc(C(F)(F)F)cc2C(F)(F)F)cc(C(=O)O)c1 (stereo not shown)
Reply: high group

Ask: Moving on to COc1ccc(C(=O)O)cc1NC(=O)CSCC1Cc2cc(OCc3ccccc3)ccc2N1C(=O)COc1ccc2ccccc2c1 (stereo not shown)
Reply: high group

Ask: Moving on to CC(C)(c1ccccc1)c1ccc(OCC(=O)N2c3ccc(OCc4ccccc4)cc3CC2CSCC(=O)Nc2cccc(C(=O)O)c2)c(C(C)(C)c2ccccc2)c1 (stereo not shown)
Reply: low group

Ask: Moving on to CCC(C)(C)c1ccc(OCC(=O)N2c3ccc(OCc4ccccc4)cc3CC2CSCC(=O)Nc2cccc(C(=O)O)c2)c(C(C)(C)CC)c1 (stereo not shown)
Reply: low group

Ask: Moving on to CCC(C)(C)c1ccc(OCC(=O)N2c3ccc(OCc4ccccc4)cc3CC2CSCC(=O)O)c(C(C)(C)CC)c1 (stereo not shown)
Reply: middle group

Ask: Moving on to CCC(C)(C)c1ccc(OCC(=O)N2c3ccc(OCc4ccccc4)cc3CC2CSCC(=O)N(C)c2cc(C(=O)O)ccc2OC)c(C(C)(C)CC)c1 (stereo not shown)
Reply: low group

Ask: Moving on to CC(=O)c1cc(NC(=O)CSCC2Cc3cc(OCc4ccccc4)ccc3N2C(=O)COc2cc(C(F)(F)F)cc(C(F)(F)F)c2)cc(C(=O)O)c1 (stereo not shown)
Reply: high group

Ask: Moving on to COc1ccc(C(=O)O)cc1NC(=O)CSCC1Cc2cc(OCc3ccccc3)ccc2N1Cc1ccc(C(F)(F)F)cc1C(F)(F)F (stereo not shown)
Reply: high group

Ask: Moving on to O=C(CSCC1Cc2cc(OCc3ccccc3)ccc2N1Cc1ccc2ccccc2c1)Nc1cccc(C(=O)O)c1 (stereo not shown)
Reply: middle group
